Recorded values, source the supplement of paper PMC5998384.

Record form. Attribute: solubility change mitosis (log2). Fill in for each entry.
- Test system: HeLa Kyoto
- Assay overview: solubility change mitosis vs G1/S (difference of NP-40 vs SDS log2 ratios) (log2 ratio difference); higher = more soluble in mitosis

Tell me the measured solubility change mitosis (log2) of MAVSVTPIRDTKWLTLEVCREFQRGTCSRPDTECKFAHPSKSCQVENGRVIACFDSLKGRCSRENCKYLHPPPHLKTQLEINGRNNLIQQKNMAMLAQQMQLANAMMPGAPLQPVPMFSVAPSLATNASAAAFNPYLGPVSPSLVPAEILPTAPMLVTGNPGVPVPAAAAAAAQKLMRTDRLEVCREYQRGNCNRGENDCRFAHPADSTMIDTNDNTVTVCMDYIKGRCSREKCKYFHPPAHLQAKIKAAQYQVNQAAAAQAAATAAAMTQSAVKSLKRPLEATFDLGIPQAVLPPLPKRPALEKTNGATAVFNTGIFQYQQALANMQLQQHTAFLPPVPMVHGATPATVSAATTSATSVPFAATATANQIPIISAEHLTSHKYVTQM [MBNL1] , please.
0.353

For MTSLTQRSSGLVQRRTEASRNAADKERAAGGGAGSSEDDAQSRRDEQDDDDKGDSKETRLTLMEEVLLLGLKDREGYTSFWNDCISSGLRGCMLIELALRGRLQLEACGMRRKSLLTRKVICKSDAPTGDVLLDEALKHVKETQPPETVQNWIELLSGETWNPLKLHYQLRNVRERLAKNLVEKGVLTTEKQNFLLFDMTTHPLTNNNIKQRLIKKVQEAVLDKWVNDPHRMDRRLLALIYLAHASDVLENAFAPLLDEQYDLATKRVRQLLDLDPEVECLKANTNEVLWAVVAAFTK [GOLPH3] then?
-0.137

---

- Tested on: HeLa Kyoto
- Assay overview: thermal stability score vs G1/S (z-score of summed log2 fold changes over temperatures); higher = more thermally stable than in G1/S
- Experimental context: cell cycle stage: mitosis
Assign True to entries whose thermal stability score meets or exceeds -0.6; assign False to the rest.

Reported thermal stability score reaches at least -0.6 for MELTIFILRLAIYILTFPLYLLNFLGLWSWICKKWFPYFLVRFTVIYNEQMASKKRELFSNLQEFAGPSGKLSLLEVGCGTGANFKFYPPGCRVTCIDPNPNFEKFLIKSIAENRHLQFERFVVAAGENMHQVADGSVDVVVCTLVLCSVKNQERILREVCRVLRPGGAFYFMEHVAAECSTWNYFWQQVLDPAWHLLFDGCNLTRESWKALERASFSKLKLQHIQAPLSWELVRPHIYGYAVK [METTL7A] ?
True

Query MESGFTSKDTYLSHFNPRDYLEKYYKFGSRHSAESQILKHLLKNLFKIFCLDGVKGDLLIDIGSGPTIYQLLSACESFKEIVVTDYSDQNLQELEKWLKKEPEAFDWSPVVTYVCDLEGNRVKGPEKEEKLRQAVKQVLKCDVTQSQPLGAVPLPPADCVLSTLCLDAACPDLPTYCRALRNLGSLLKPGGFLVIMDALKSSYYMIGEQKFSSLPLGREAVEAAVKEAGYTIEWFEVISQSYSSTMANNEGLFSLVARKLSRPL [NNMT] next
True

What do you get for MICLVLTIFANLFPAACTGAHERTFLAVKPDGVQRRLVGEIVRRFERKGFKLVALKLVQASEELLREHYAELRERPFYGRLVKYMASGPVVAMVWQGLDVVRTSRALIGATNPADAPPGTIRGDFCIEVGKNLIHGSDSVESARREIALWFRADELLCWEDSAGHWLYE [NME3] ?
False

Same lookup for MASLEVSRSPRRSRRELEVRSPRQNKYSVLLPTYNERENLPLIVWLLVKSFSESGINYEIIIIDDGSPDGTRDVAEQLEKIYGSDRILLRPREKKLGLGTAYIHGMKHATGNYIIIMDADLSHHPKFIPEFIRKQKEGNFDIVSGTRYKGNGGVYGWDLKRKIISRGANFLTQILLRPGASDLTGSFRLYRKEVLEKLIEKCVSKGYVFQMEMIVRARQLNYTIGEVPISFVDRVYGESKLGGNEIVSFLKGLLTLFATT [DPM1] , please.
True

Follow-up entry: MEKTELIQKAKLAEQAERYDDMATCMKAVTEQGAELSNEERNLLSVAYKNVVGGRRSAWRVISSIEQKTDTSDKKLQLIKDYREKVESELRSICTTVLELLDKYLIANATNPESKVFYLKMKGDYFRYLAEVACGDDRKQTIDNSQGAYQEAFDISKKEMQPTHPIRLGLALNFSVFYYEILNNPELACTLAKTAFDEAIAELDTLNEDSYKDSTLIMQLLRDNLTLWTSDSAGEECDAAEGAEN [YWHAQ]
True

Field entry: MEDPTLYIVERPLPGYPDAEAPEPSSAGAQAAEEPSGAGSEELIKSDQVNGVLVLSLLDKIIGAVDQIQLTQAQLEERQAEMEGAVQSIQGELSKLGKAHATTSNTVSKLLEKVRKVSVNVKTVRGSLERQAGQIKKLEVNEAELLRRRNFKVMIYQDEVKLPAKLSISKSLKESEALPEKEGEELGEGERPEEDAAALELSSDEAVEVEEVIEESRAERIKRSGLRRVDDFKKAFSKEKMEKTKVRTRENLEKTRLKTKENLEKTRHTLEKRMNKLGTRLVPAERREKLKTSRDKLRKSFTPDHVVYARSKTAVYKVPPFTFHVKKIREGQVEVLKATEMVEVGADDDEGGAERGEAGDLRRGSSPDVHALLEITEESDAVLVDKSDSD [PTRF]
False

Next: MAGENFATPFHGHVGRGAFSDVYEPAEDTFLLLDALEAAAAELAGVEICLEVGSGSGVVSAFLASMIGPQALYMCTDINPEAAACTLETARCNKVHIQPVITDLVKGLLPRLTEKVDLLVFNPPYVVTPPQEVGSHGIEAAWAGGRNGREVMDRFFPLVPDLLSPRGLFYLVTIKENNPEEILKIMKTKGLQGTTALSRQAGQETLSVLKFTKS [N6AMT1]
True

Now the same for MGKRDNRVAYMNPIAMARSRGPIQSSGPTIQDYLNRPRPTWEEVKEQLEKKKKGSKALAEFEEKMNENWKKELEKHREKLLSGSESSSKKRQRKKKEKKKSGRYSSSSSSSSDSSSSSSDSEDEDKKQGKRRKKKKNRSHKSSESSMSETESDSKDSLKKKKKSKDGTEKEKDIKGLSKKRKMYSEDKPLSSESLSESEYIEEVRAKKKKSSEEREKATEKTKKKKKHKKHSKKKKKKAASSSPDSP [FAM133B]
False

Moving on to MVLIKEFRVVLPCSVQEYQVGQLYSVAEASKNETGGGEGIEVLKNEPYEKDGEKGQYTHKIYHLKSKVPAFVRMIAPEGSLVFHEKAWNAYPYCRTIVTNEYMKDDFFIKIETWHKPDLGTLENVHGLDPNTWKTVEIVHIDIADRSQVEPADYKADEDPALFQSVKTKRGPLGPNWKKELANSPDCPQMCAYKLVTIKFKWWGLQSKVENFIQKQEKRIFTNFHRQLFCWIDKWIDLTMEDIRRMEDETQKELETMRKRGSVRGTSAADV [PITPNB]
True

---

- Test system: HeLa Kyoto
- Assay overview: thermal stability score vs G1/S (z-score of summed log2 fold changes over temperatures); higher = more thermally stable than in G1/S
- Experimental context: cell cycle stage: mitosis
Could you please report measured thermal stability score for the items listed next?
// no unit, no text: just the number

What does the record list as thermal stability score for MAAPAPGAGAASGGAGCSGGGAGAGAGSGSGAAGAGGRLPSRVLELVFSYLELSELRSCALVCKHWYRCLHGDENSEVWRSLCARSLAEEALRTDILCNLPSYKAKIRAFQHAFSTNDCSRNVYIKKNGFTLHRNPIAQSTDGARTKIGFSEGRHAWEVWWEGPLGTVAVIGIATKRAPMQCQGYVALLGSDDQSWGWNLVDNNLLHNGEVNGSFPQCNNAPKYQIGERIRVILDMEDKTLAFERGYEFLGVAFRGLPKVCLYPAVSAVYGNTEVTLVYLGKPLDG [FBXO45] ?
-0.292

And MSRYLRPPNTSLFVRNVADDTRSEDLRREFGRYGPIVDVYVPLDFYTRRPRGFAYVQFEDVRDAEDALHNLDRKWICGRQIEIQFAQGDRKTPNQMKAKEGRNVYSSSRYDDYDRYRRSRSRSYERRRSRSRSFDYNYRRSYSPRNSRPTGRPRRSRSHSDNDRFKHRNRSFSRSKSNSRSRSKSQPKKEMKAKSRSRSASHTKTRGTSKTDSKTHYKSGSRYEKESRKKEPPRSKSQSRSQSRSRSKSRSRSWTSPKSSGH [SRSF10] ?
-0.653

Input MPKHEFSVDMTCGGCAEAVSRVLNKLGGVKYDIDLPNKKVCIESEHSMDTLLATLKKTGKTVSYLGLE [ATOX1]
-2.04

Also MLTTLLPILLLSGWAFCSQDASDGLQRLHMLQISYFRDPYHVWYQGNASLGGHLTHVLEGPDTNTTIIQLQPLQEPESWARTQSGLQSYLLQFHGLVRLVHQERTLAFPLTIRCFLGCELPPEGSRAHVFFEVAVNGSSFVSFRPERALWQADTQVTSGVVTFTLQQLNAYNRTRYELREFLEDTCVQYVQKHISAENTKGSQTSRSYTSLVLGVLVGSFIIAGVAVGIFLCTGGRRC [PROCR] ?
0.816

Follow-up entry: MISLTDTQKIGMGLTGFGVFFLFFGMILFFDKALLAIGNVLFVAGLAFVIGLERTFRFFFQKHKMKATGFFLGGVFVVLIGWPLIGMIFEIYGFFLLFRGFFPVVVGFIRRVPVLGSLLNLPGIRSFVDKVGESNNMV [GOLT1B]
-4.7

Lookup MGDHAWSFLKDFLAGGVAAAVSKTAVAPIERVKLLLQVQHASKQISAEKQYKGIIDCVVRIPKEQGFLSFWRGNLANVIRYFPTQALNFAFKDKYKQLFLGGVDRHKQFWRYFAGNLASGGAAGATSLCFVYPLDFARTRLAADVGKGAAQREFHGLGDCIIKIFKSDGLRGLYQGFNVSVQGIIIYRAAYFGVYDTAKGMLPDPKNVHIFVSWMIAQSVTAVAGLVSYPFDTVRRRMMMQSGRKGADIMYTGTVDCWRKIAKDEGAKAFFKGAWSNVLRGMGGAFVLVLYDEIKKYV [SLC25A4]
-1.11

Same thing, different sequence: MPVAVGPYGQSQPSCFDRVKMGFVMGCAVGMAAGALFGTFSCLRIGMRGRELMGGIGKTMMQSGGTFGTFMAIGMGIRC [ROMO1]
-1.2

And the next one, MEAVLNELVSVEDLLKFEKKFQSEKAAGSVSKSTQFEYAWCLVRSKYNDDIRKGIVLLEELLPKGSKEEQRDYVFYLAVGNYRLKEYEKALKYVRGLLQTEPQNNQAKELERLIDKAMKKDGLVGMAIVGGMALGVAGLAGLIGLAVSKSKS [FIS1] ?
-0.553
